- assay: Half life in rat at 2 mg/kg, iv and 5 mg/kg, po
- Type: ADME, organism-based
- measurement setup: in vivo
assay metric: half-life (h)

smiles repr	assay metric	reading
CC(C)CN1CCC(COc2ccc(NC(=O)Nc3cccnc3Oc3ccccc3C(C)(C)C)c(F)c2)CC1	half-life	3.4

###

- assay: Clearance in rat at 1 mg/kg, iv
- Format: ADME, organism-based
- Set-up: dose 1 mg/kg, route intravenous
- measurement setup: in vivo

smiles repr	clearance
CN(C)Cc1ccccc1-c1ccc(NC(=O)Nc2cccnc2Oc2ccccc2C(C)(C)C)c(F)c1	158 mL/min/kg

###

- assay: Oral bioavailability in rat at 1 mg/kg
- Type: ADME, organism-based
- measurement setup: in vivo
assay metric: bioavailability (%)

smiles repr	reading
CC(C)(C)c1ccccc1Oc1ncccc1NC(=O)Nc1ccc(OC(F)(F)F)cc1	7

###

- Tested on: Plasma
- assay: Plasma concentration in rat at 1 mg/kg, iv followed by administered 10 mg/kg/hr of sustaining dose
- Assay type: ADME, organism-based
- measurement setup: in vivo

smiles repr	tested target	unit label	concentration
CN(C)Cc1ccccc1-c1ccc(NC(=O)Nc2cccnc2Oc2ccccc2C(C)(C)C)c(F)c1	Plasma	µM	8.5

###

- assay: Volume of distribution at steady state in rat at 2 mg/kg, iv and 5 mg/kg, po
- Format: ADME, organism-based
- measurement setup: in vivo, read-out: Vdss

smiles repr	Vd
CC(C)CN1CCC(COc2ccc(NC(=O)Nc3cccnc3Oc3ccccc3C(C)(C)C)c(F)c2)CC1	5 L/kg

###

- assay: Half life in rat at 1 mg/kg, iv and po
- Assay type: ADME, organism-based
- Design: dose 1 mg/kg, route oral
- measurement setup: in vivo

smiles repr	half-life (h)
CC(C)(C)c1ccccc1Oc1ncccc1NC(=O)Nc1ccc(OC(F)(F)F)cc1	15

###

- assay: Metabolic stability in rat liver microsomes assessed as compound remaining after 10 mins
- Assay type: ADME, Microsome
- measurement setup: liver microsomes, read-out: Stability

smiles repr	unit label	remaining at 10 min
CC(C)(C)c1ccccc1Oc1ncccc1NC(=O)Nc1ccc(OC(F)(F)F)cc1	%	86
CN(C)Cc1ccccc1-c1ccc(NC(=O)Nc2cccnc2Oc2ccccc2C(C)(C)C)c(F)c1	%	24
CC(C)CN1CCC(COc2ccc(NC(=O)Nc3cccnc3Oc3ccccc3C(C)(C)C)c(F)c2)CC1	%	67

###

- assay: Half life in rat at 1 mg/kg, iv
- Type: ADME, organism-based
- Parameters: dose 1 mg/kg, route intravenous
- measurement setup: in vivo

smiles repr	half-life [h]
CN(C)Cc1ccccc1-c1ccc(NC(=O)Nc2cccnc2Oc2ccccc2C(C)(C)C)c(F)c1	1.5

###

- assay: Oral bioavailability in rat at 5 mg/kg
- Type: ADME, organism-based
- measurement setup: in vivo

smiles repr	bioavailability [%]
CC(C)CN1CCC(COc2ccc(NC(=O)Nc3cccnc3Oc3ccccc3C(C)(C)C)c(F)c2)CC1	40
